# merged literature set: IC50 with PIK3CD (Human)

Nc1nc2cc(-c3ccc4ncc(-c5cnn(CCO)c5)nc4c3)ccc2o1; > 10000 nM

q: Answer with the recorded IC50 for the compound listed here: `Cc1ccccc1-n1c(Cn2nc(-c3ccc4nc(N)ccc4c3)c3c(N)ncnc32)cc2cccc(C)c2c1=O`
a: < 100 nM

q: Indicate the recorded IC50 value for this compound: `CN1CC(C(=O)N2CCC(Nc3ncnc4ccc(-c5ccc6oc(N)nc6c5)cc34)CC2)C1`
a: < 100 nM

q: Give a short answer stating reported IC50 for `COc1ncc(-c2nc(N3CCOCC3)nc3c(CN4CCC(N(C)C(=O)OC(C)(C)C)CC4)csc23)cc1NS(C)(=O)=O` .
a: 36 nM

q: Return the recorded IC50 value; entry: `C[C@H](NC(=O)c1nc(-c2cccc(NS(C)(=O)=O)c2)cnc1N)c1cc2cccc(Cl)c2c(=O)n1C`
a: 100 to 1000 nM

q: Give a short answer stating reported IC50 for Cc1nn(C(C)c2cc(Cl)c(F)c3c2OC(C)CN(C2CN(C(N)=O)C2)C3)c2ncnc(N)c12 (single isomer, unassigned) .
a: ≤ 100 nM

q: Indicate its recorded IC50; the compound in question is `COCCN(C)[C@H]1CC[C@H](CNc2cc(-n3c(C(F)F)nc4ccccc43)nc(N3CCOCC3)n2)CC1`
a: 16 nM

###

Please find below IC50 data on PIK3CD (Human) compiled from the literature.

CC(=O)N1CCN(c2cnc3ccc(-c4ccc5oc(N)nc5c4)cc3n2)CC1; < 100 nM
C[C@@H](O)C(=O)N1CCN(Cc2csc3c(-c4cccc5[nH]ncc45)nc(N4CCOCC4)nc23)CC1; 16 nM
COCCn1cc(Nc2ncc3cc(C#N)c(=O)n(C4CCCC4)c3n2)cn1; 75 nM

Turning now to a further record.
q: Dear colleague, please send me the reported IC50 for `Cc1cccc2cc([C@H](C)Nc3c(C#N)cnc4ccccc34)n(-c3ccccc3)c(=O)c12` when you can.
a: < 10000 nM

###

Hi, quick share: literature IC50 data for PIK3CD (Human) (UniProt O00329), several sources combined.

Check out these entries, answers already filled in.
C[C@H](Nc1ncnc2cccnc12)c1cc2cccc(Cl)c2c(C(=O)N2CCNC(=O)C2)n1; < 1000 nM
Cc1ccccc1-n1c(Cn2nc(-c3ccc(F)c(O)c3)c3c(N)ncnc32)cc2ccccc2c1=O; < 100 nM
Cc1cccc2cc(C(C)Nc3ncnc4[nH]cnc34)n(C3CC3)c(=O)c12 (stereo not shown); < 100 nM

Let us examine a further case.
q: Find the measured IC50 of `COc1ncc(-c2nc(N3CCOCC3)nc3c(CN4CCC(N5CCC[C@H]5C)CC4)c(C)sc23)cc1NS(C)(=O)=O` and report it.
a: 2.6 nM

###

We begin with pIC50 values for PIK3CD (Human) (UniProt O00329), as collected from the published literature.
Reminder that pIC50 is minus the log10 of a molar concentration.

As a guide, the following entries are already answered.
N#Cc1cc2cnc(NC3CCN(S(=O)(=O)C4CC4)CC3)nc2n(C2CCCC2)c1=O; 4.70
N#Cc1cc2cnc(Nc3ccn(C4CCNCC4)c(=O)c3)nc2n(C2CCCC2)c1=O; 7.47
COc1ncc(-c2nc(N3CCOCC3)nc3c(CN4CCN(CC(F)(F)F)CC4)csc23)cc1NS(C)(=O)=O; 8.04

q: Specify pIC50 for `CC(C)(O)CN1CCN(Cc2csc3c(-c4cccc5[nH]ccc45)nc(N4CCOCC4)nc23)CC1` , system PIK3CD (Human) (UniProt O00329).
a: 7.28

q: Report the value of pIC50 obtained on PIK3CD (Human) (UniProt O00329) for `C[C@H](Nc1ccc2c(c1)OCCn1cc(N3C(=O)O[C@H](C)[C@H]3C(F)F)nc1-2)C(N)=O` .
a: 6.47

q: Give pIC50 only, for `COc1ncc(-c2nc(N3CCOCC3)nc3c(CN4CCC(C(C)(C)O)CC4)c(C)sc23)cc1NS(C)(=O)=O` , using PIK3CD (Human) (UniProt O00329) data.
a: 8.15

###

Collected set of pIC50 measured with PIK3CD (Human) (UniProt O00329) across studies.
Remember the convention: pIC50 equals -log10 of concentration in molar.

COc1ncc(-c2nc(N3CCOCC3)nc3c(CN4CCN(C5CCN(C)CC5)CC4)csc23)cc1NS(C)(=O)=O; 8.04
CN1CCC(c2ccc(Nc3cc4c(cn3)cc(C#N)c(=O)n4C3CCCC3)cc2)CC1; 6.12

Pending molecule:
q: Please look at this molecule and report its pIC50: `CC(C)(C)OC(=O)N1CCC[C@H](CNc2nc(N3CCOCC3)cc(-n3c(C(F)F)nc4ccccc43)n2)C1`
a: 7.30

###

Values of IC50 for PIK3CD (Human) (UniProt O00329), collected from a number of published sources:
Number in nM, nothing else.

Previously resolved entries follow.
Cc1nc(NC(=O)N2CCC[C@H]2C(N)=O)sc1-c1ccnc(C2CC2)n1; 881
NC(=O)c1cc(-c2cn(C3Cc4ccccc4C3)c3ncnc(N)c23)cc(O)c1F; 77.9
O=C([C@H]1CCCO1)N1CC[C@H](Nc2cc(-n3c(C(F)F)nc4ccccc43)nc(N3CCOCC3)n2)C1; 7.4

Please look at the following compound next.
q: Fill in reported IC50 for this entry: `COc1ncc(-c2nc(N3CCOCC3)nc3c(CN4CCC(N5CC=CC5)CC4)c(C)sc23)cc1NS(C)(=O)=O`
a: 10

###

# IC50 against PIK3CD (Human), merged from multiple literature sources

q: // Input: `C[C@H](Nc1ncnc2[nH]cnc12)c1cc2cccc(Cl)c2c(C(=O)N2CC(O)C2)n1` . Output its IC50 only.
a: < 0.1 µM

q: Give a short answer stating reported IC50 for `C[C@H](NC(=O)c1c(N)nn2cccnc12)c1cc2cccc(C#CCN)c2c(=O)n1-c1ccccc1` .
a: 1 to 10 µM

q: In one line, give reported IC50 of the entry N#Cc1cc2cnc(Nc3ccc(N4CCNCC4)cc3)nc2n(C2CCCc3ccccc32)c1=O (stereo not drawn) .
a: 0.906 µM

q: Fill in reported IC50 for this entry: `C[C@H](Nc1ncnc2[nH]cc(C(N)=O)c12)c1cc2cccc(Cl)c2c(C(=O)N2CCOCC2)n1`
a: < 0.1 µM

q: Give recorded IC50. `Cc1cccc2cc([C@H](C)Nc3ncnc4[nH]nc(Cl)c34)n(C3CC3)c(=O)c12`
a: < 0.1 µM

q: Fill in IC50 for record `FC(F)c1nc2ccccc2n1-c1cc(N2CCOCC2)nc(NC[C@H]2CC[C@H](N3CCCCC3)CC2)n1`
a: 0.0048 µM

q: Note down IC50 recorded for `COc1ncc(-c2nc(N3CCOCC3)nc3c(CN4CCC(C(C)(C)OC)CC4)c(C)sc23)cc1NS(C)(=O)=O`
a: 0.0077 µM

q: Complete the entry with IC50 for `CNC(=O)Nc1ccc(-c2nc(N3CCOCC3)nc3c2cnn3C(C)C)cc1`
a: > 0.1 µM

q: State its IC50 for this compound: `Cc1sc2c(-c3cccc4[nH]ccc34)nc(N3CCOCC3)nc2c1CN1CCN(C(=O)CO)CC1`
a: 0.072 µM

q: Report IC50 for `C[C@H](Nc1ncnc2[nH]cnc12)c1cc2cccc(Cl)c2c(SCCN2CCOCC2)n1`
a: < 0.1 µM

###

pIC50: −log10 of the molar value.
Collected literature values of pIC50 measured for PIK3CD (Human) (UniProt O00329).

q: Please respond with reported pIC50 (system PIK3CD (Human) (UniProt O00329)) for `N#Cc1cc2cnc(Nc3ccc(S(=O)(=O)N4CCC(O)CC4)cc3)nc2n(C2CCCC2)c1=O` .
a: 6.01

q: Report pIC50 under test system PIK3CD (Human) (UniProt O00329) for Cc1nn(C(C)c2cc(Cl)c(F)c3c2OC(C)CN(C2CN(S(N)(=O)=O)C2)C3)c2ncnc(N)c12 (single isomer, unassigned) .
a: ≥ 7.00

q: Answer with pIC50 of `Nc1nc2cc(-c3ccc4ncc(-c5cccnc5)n4n3)ccc2o1` measured for PIK3CD (Human) (UniProt O00329).
a: > 7.00

q: Please look at `Cc1ccccc1-n1c(Cn2nc(-c3ccc(F)cc3)c3c(N)ncnc32)cc2cccc(C)c2c1=O` and tell me its recorded pIC50 on PIK3CD (Human) (UniProt O00329).
a: > 5.00

q: Fill in: pIC50 on PIK3CD (Human) (UniProt O00329), entry `COc1ncc(-c2nc(N3CCOCC3)nc3c(CN4CCC(C(C)(C)F)CC4)c(C)sc23)cc1NS(C)(=O)=O`
a: 8.07

###

Assembled from different publications: IC50 for PIK3CD (Human) (UniProt O00329).

Worked cases, answers included:
Cc1nn(C(C)c2cc(Cl)c(C#N)c3c2OC(C)CN(CC(N)=O)C3)c2ncnc(N)c12 (single isomer, unassigned); ≤ 100 nM
C[C@H](NC(=O)c1c(N)nn2cccnc12)c1cc2cccc(NCC(F)(F)F)c2c(=O)n1-c1ccccc1; > 10000 nM
COc1cccc2c(Br)c([C@H](C)NC(=O)c3c(N)nn4cccnc34)n(-c3ccccc3)c(=O)c12; 1000 to 10000 nM
COc1ccc(-c2nn(C3Cc4ccccc4C3)c3ncnc(N)c23)cc1O; 32.1 nM
COc1cccc(-c2cnc(N)c(C(=O)N[C@@H](C)c3cc4cccc(Cl)c4c(=O)n3-c3ccccc3)n2)c1; > 10000 nM
CS(=O)(=O)N1CCC(Nc2ncc3cc(C#N)c(=O)n(C4CCCC4)c3n2)CC1; 12100 nM
Nc1nc2cc(-c3ccc4ncc(N5CCC(F)(F)CC5)nc4n3)ccc2o1; > 10000 nM
Cc1cccc2cc(Cn3nc(-c4cn[nH]c4)c4c(N)ncnc43)n(-c3ccccc3)c(=O)c12; < 100 nM

q: Name the recorded IC50 of `CC(C)NS(=O)(=O)c1cccc(-c2cnc(N)c(C(=O)N[C@@H](C)c3cc4cccc(Cl)c4c(=O)n3-c3ccccc3)n2)c1` , assay system PIK3CD (Human) (UniProt O00329).
a: 1000 to 10000 nM

q: Write down the reported IC50 (system: PIK3CD (Human) (UniProt O00329)) of `CN1CCC(CNc2nc(N3CCOCC3)nc(-n3c(C(F)F)nc4ccccc43)n2)CC1`
a: 31 nM

q: For PIK3CD (Human) (UniProt O00329), give IC50 of the listed compound: CC1CN(C(=O)c2cnc3ccc(-c4ccc5oc(N)nc5c4)cn23)CC(C)N1 (stereo not drawn)
a: > 10000 nM

q: Provide measured IC50 on PIK3CD (Human) (UniProt O00329) for `CS(=O)(=O)N1CCN(Cc2cnn3c(-c4cccc5[nH]ncc45)cc(N4CCOCC4)nc23)CC1` please.
a: 606 nM

q: Look up PIK3CD (Human) (UniProt O00329) data: IC50 of `COC(=O)N[C@@H]1CCN([C@H]2CC[C@H](Nc3cc(-n4c(C(F)F)nc5ccccc54)nc(N4CCOCC4)n3)CC2)C1=O` , then report it.
a: 35 nM

q: Report IC50 on PIK3CD (Human) (UniProt O00329) for this entry: `COCCN(CC(C)(C)O)[C@H]1CC[C@H](CNc2nc(N3CCOCC3)cc(-n3c(C(F)F)nc4ccccc43)n2)CC1`
a: 15 nM

q: Give PIK3CD (Human) (UniProt O00329) IC50 for the following compound: `C[C@H](Nc1ncnc2[nH]cnc12)c1cc2cccc(Cl)c2c(OCC(=O)O)n1`
a: < 10000 nM
